- experimentalTarget: MBP-FoxP3dN (Mus musculus, UniProt Q99JB6 188-423)
- Sequence: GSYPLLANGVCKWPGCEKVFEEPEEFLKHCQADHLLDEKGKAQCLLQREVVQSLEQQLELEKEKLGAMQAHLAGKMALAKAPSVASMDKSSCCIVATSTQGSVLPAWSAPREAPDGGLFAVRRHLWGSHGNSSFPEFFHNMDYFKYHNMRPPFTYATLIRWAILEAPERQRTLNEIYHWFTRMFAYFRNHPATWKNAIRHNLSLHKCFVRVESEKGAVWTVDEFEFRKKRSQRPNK
- method: PD-seq (MBP pull-down with sequencing); 20 mM Tris-HCl pH 7.5, 100 mM NaCl, 1.5 mM MgCl2, 0.4 uM protein, 0.1 uM dsDNA library, 30 min, room temperature, amylose pull-down; high values mean tight binding
- measurementSetup: protein: recombinant; tags: His6-MBP; chain copies: 2; dsDNA, one strand shown
The full ranking holds about 16,000 sequences; the median of “rpm ratio (pull-down/input)” is about 0.5, and the highest 2% start at about 5.5. The sample as a whole holds a higher share of the highest values than the screen did.
observable: binding signal

1) GATGATTGTTCTCCCAGCTGATGAATTTAGCAGCTCGAGTAAACAAATTTTCCTAATCTTTCTGTTCAAGCGCCATCTAC: 1.72 RPM ratio (pull-down/input)
2) GATGATTGTTCTCCCAGCTGATGAATTGGTTACCTCGAGTAAACAAATTTTCCTAATCTTTCTGTTCAAGCGCCATCTAC: 0.673 RPM ratio (pull-down/input)
3) GATGATTGTTCTCCCAGCTGATGAATTAGTGCATTCGAGTAAACAAATTTTCCTAATCTTTCTGTTCAAGCGCCATCTAC: 7.28 RPM ratio (pull-down/input)
4) GATGATTGTTCTCCCAGCTGATGAATTCTAGCATTCGAGTAAACAAATTTTCCTAATCTTTCTGTTCAAGCGCCATCTAC: 5.17 RPM ratio (pull-down/input)
5) GATGATTGTTCTCCCAGCTGATGAATTGTAACCATCGAGTAAACAAATTTTCCTAATCTTTCTGTTCAAGCGCCATCTAC: 1.1 RPM ratio (pull-down/input)
6) GATGATTGTTCTCCCAGCTGATGAATTTTAGCATTCGAGTAAACAAATTTTCCTAATCTTTCTGTTCAAGCGCCATCTAC: 5.97 RPM ratio (pull-down/input)
7) GATGATTGTTCTCCCAGCTGATGAATTAGCCCATTCGAGTAAACAAATTTTCCTAATCTTTCTGTTCAAGCGCCATCTAC: 0.4 RPM ratio (pull-down/input)

Ref: paper PMC12820563
